Tested on: SF-295 CNS
Assay: NCI tumour cell line growth inhibition, 48 h
Below: a set of entries, each annotated with reported TGI.
Express your answer in µM, writing the number without its unit.

[[record]]
molecule = "CCN(Cc1cc(Nc2nc(C)cn3c(-c4cn[nH]c4)cnc23)sn1)C(C)(C)CO"
observed_value = 3.36


// next entry
Query :: Identify TGI associated with the molecule CC1OC(OC2C(O)COC(OC3C(C)OC(OC4C(OC(=O)[C@]56CCC(C)(C)C[C@@H]5C5=CCC7[C@@]8(C)C[C@H](O)[C@H](OC9OC(CO)C(O)C(OC%10OC(CO)C(O)C(O)C%10O)C9O)[C@@](C)(CO)[C@@H]8CC[C@@]7(C)[C@]5(C)CC6)OCC(O)C4O)C(O)C3OC3OCC(O)(CO)C3O)C2O)C(O)C(O)C1O (stereo partly drawn)
Result :: 18.6
